- System: HeLa MKYP cells
- test_protocol: Cell death measured by DAPI staining, with 1 μM FCCP/oligomycin or no toxin (no FO)
- Assay type: cell-based
- assay_setup: with 1 μM FO
attribute_measured: Max % death with 1 μM FO (%)
Express it in %; write the number only.

The examples below pair each entry with its known result.
compound: c1ccc2c(c1)OCC(N1CC3CCOC3C1)C2Nc1ncnc2[nH]c(C3CC3)cc12 (single isomer, unassigned) [EP-0041670]
system_name: HeLa MKYP cells
attribute_measured: Max % death with 1 μM FO
obs_value: 5.4
--
compound: Fc1ccc2c(c1)OC[C@H](N1CCOCC1)[C@H]2Nc1ncnc2[nH]c(C3CC3)cc12 [EP-0040500]
system_name: HeLa MKYP cells
attribute_measured: Max % death with 1 μM FO
obs_value: 8.6
--
compound: COC(C)(C)C1CN([C@H]2COc3ccccc3[C@@H]2Nc2ncnc3[nH]c(C(F)(F)F)cc23)C1 [EP-0041480]
system_name: HeLa MKYP cells
attribute_measured: Max % death with 1 μM FO
obs_value: 4.6
--
compound: COC1CN([C@H]2COc3cc(F)ccc3[C@@H]2Nc2ncnc3[nH]c(C(F)(F)F)cc23)C1 (single isomer, unassigned) [EP-0041089]
system_name: HeLa MKYP cells
attribute_measured: Max % death with 1 μM FO
obs_value: 10.2
--
compound: OC[C@H]1CCN(C2CCc3ccccc3C2Nc2ncnc3[nH]c(C(F)(F)F)cc23)C1 (mixture of isomers) [EP-0040121]
system_name: HeLa MKYP cells
attribute_measured: Max % death with 1 μM FO
obs_value: 33.6

Could you now look at the following compound, please?
Which measured Max % death with 1 μM FO value corresponds to Fc1ccc2c(c1)OC[C@H](N1C[C@H]3COC[C@H]3C1)[C@H]2Nc1ncnc2[nH]c(C3CC3)cc12 (single isomer, unassigned) [EP-0040326] ?
3.6

Origin of the recorded values: patent US20240018146A1
